Attribution: PubChem BioAssay AID1159580

Quick list: normalized growth per entry.
assay: chemical genetic growth profiling, strain panel (AID 1159580);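 note: tested at 20 µM; growth read once vehicle control cultures reached saturation at 30 °C; 1 = growth at the plate median or of vehicle wells; lower values mean less growth of the strain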; settings: S. cerevisiae deletion strains, growth OD, locus YBR021W, strain FUR4, hits give low values
In all, about 5,500 compounds went through this assay and about 2,000 (36%) were called active. Roughly 18% stayed inconclusive and do not appear here. The list shows a part of the results.

Task: Give reported normalized growth value for `S=c1[nH]c2ccccc2s1`
Output: 1.06 (inactive)

###

The entries below are paired with their reported normalized growth.
experiment: chemical genetic growth profiling, strain panel (AID 1159580); conditions: S. cerevisiae deletion strains, growth OD, locus YJL154C, strain vps35, hits give low values
The campaign covered roughly 5,500 compounds. About 2,000 (36%) were called active. Inconclusive results (about 18%) are left out. This is one part of the list.

>>> value("COc1ccc(C=CC(=O)c2ccc(O)cc2O)cc1OC")
"0.998 (inactive)"
>>> value("O=C1O[C@@H](CO)[C@H](O)[C@@H](O)[C@@H]1O")
"1.02 (inactive)"
>>> value("CCOC(=O)CCCCCCCCCCCCC1C=CCC1 (configuration not stated)")
"0.997 (inactive)"
>>> value("O=C(O)CCCCC1SCC2NC(=O)NC21 (configuration not stated)")
"0.994 (inactive)"
>>> value("NCc1ccc(S(N)(=O)=O)cc1")
"1 (inactive)"
>>> value("COc1cc(/C=C/C(=O)O)ccc1O")
"1 (inactive)"

// below: normalized growth requested for another molecule
Task: State its normalized growth: `COc1ccc(/C=C/C(=O)c2ccc(O)cc2O)cc1`
Output: 0.697 (active)

###

test: chemical genetic growth profiling, strain panel (AID 1159580); settings: S. cerevisiae deletion strains, growth OD, locus YMR001C, strain CDC5, hits give low values
The whole screen tested about 5,500 compounds, of which about 2,000 (36%) were called active. Inconclusive results (about 18%) are left out. The list shows a part of the results.
Known normalized growth of a selection of compounds
Give a plain numeric answer without units written out.

Here is how some compounds turned out for normalized growth.
>>> value("CC(C)(O)C#Cc1ccc(/C=N\\Nc2ccccc2)cc1")
0.96
>>> value("Nc1cc(-c2ccc(OC(F)(F)F)cc2)nn1-c1ccc(Cl)c(Cl)c1")
0.999
>>> value("N=C(N)SCc1nc(-c2ccc(Cl)cc2)no1")
0.981
>>> value("COc1ccccc1C(C[N+](=O)[O-])c1c(N)n(C)c(=O)n(C)c1=O (stereo unspecified)")
0.946
>>> value("OC(c1ccc(C(F)(F)F)cc1)c1cccc(C(F)(F)F)c1 (stereo unspecified)")
0.973
>>> value("CC(=O)C(Sc1nc2ccccc2s1)C(C)=O")
0.91
>>> value("O=S(=O)(Nc1cc(C(F)(F)F)ccc1F)c1cc(C(F)(F)F)ccc1Cl")
0.943
>>> value("O=C(Nc1cccc(C(F)(F)F)c1)Oc1ccc(F)cc1Cl")
0.984

Task: For the compound `COc1cc(C(=O)Oc2c(Cl)cc(Cl)cc2C=Nc2cccc([N+](=O)[O-])c2)cc(OC)c1OC` , report normalized growth.
Output: 0.981

Task: Identify the reported normalized growth for the following entry. CCC1CCC(C)N(C(=S)Nc2ccc(Br)cc2C)C1 (stereo unspecified)
Output: 0.961

Task: For the compound `O=C(Nc1ccccn1)c1cc(-c2ccccc2)c(C(F)(F)F)s1` , report normalized growth.
Output: 0.921

Task: Give the measured normalized growth for CC12CC[C@@H](O)CC1=CC[C@@H]1C2CCC2(C)C(=O)CC[C@@H]12 (stereo partly specified)
Output: 1

Task: Give the reported normalized growth for this compound. `COc1ccccc1NC(=O)Nc1nn(C)c2cccc(OC)c12`
Output: 0.902

###

test: chemical genetic growth profiling, strain panel (AID 1159580);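 note: tested at 20 µM; growth read once vehicle control cultures reached saturation at 30 °C; 1 = growth at the plate median or of vehicle wells; lower values mean less growth of the strain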; conditions: S. cerevisiae deletion strains, growth OD, locus YJR075W, strain HOC1
Out of some 5,500 compounds screened, about 2,000 (36%) were called active. Not shown: some 18% with an inconclusive outcome. Cut-off read from the data, not from the text of the source: active = normalized growth mostly below about 0.91 (no sharp cut-off); inconclusive = no clear call, values can overlap the other calls; inactive = mostly above about 0.92. The list shows a part of the results.
Outcome field: choose from active, inactive

>>> category("O=C(O)CC[C@@H](NC(=O)c1ccccc1C(=O)O)C(=O)O")
"inactive"
>>> category("CCOC(=O)C1=CC2(CC)CCCN3CCc4c(n1c1ccccc41)C32 (stereo not drawn)")
"inactive"
>>> category("COP(=S)(OC)Oc1ccc(SC)c(C)c1")
"inactive"

Task: Assay outcome for `CCOP(=S)(OCC)SCCSCC` : what was it?
Output: inactive

Task: Any idea what this test logged for CC(Cc1ccc(O)c(O)c1)(NN)C(=O)O (stereo not drawn) ?
Output: inactive

Task: I'd appreciate the recorded outcome for `O=C(Nc1ccc(Cl)cc1Cl)c1cnccn1` from this test.
Output: inactive

Task: Assay outcome for CC(=O)N[C@@H]1[C@@H](C(O)[C@H](O)CO)O[C@](O)(C(=O)O)C[C@@H]1O (stereo partly drawn) : what was it?
Output: inactive

Task: Status in this test for `S=c1[nH]c2ccccc2s1` ?
Output: inactive

Task: // param item: c1ccc2c(c1)OCC(C1=NCCN1)O2 (stereo not drawn) ; yields the recorded call
Output: inactive

Task: What call does the record list for CO[C@@H]1C[C@@H](C[C@H]2CC[C@H](C)[C@H]([C@@H](C)C(=O)O)O2)O[C@]2(O[C@](C)([C@H]3CC[C@@](C)(C4O[C@@H](C5O[C@@](O)(CO)[C@H](C)C[C@@H]5C)C[C@@H]4C)O3)C[C@H]2C)[C@@H]1C (stereo partly drawn) ?
Output: inactive

Task: Hi, sorry to bother you, what did the test record for COc1ccc(C[C@H](N)C(=O)N[C@@H]2[C@@H](CO)OC(n3cnc4c(N(C)C)ncnc43)[C@@H]2O)cc1 (stereo partly drawn) ?
Output: inactive

Task: Look up the recorded call for Nc1nc2c(c(=O)[nH]1)N(C=O)C(CNc1ccc(C(=O)N[C@@H](CCC(=O)O)C(=O)O)cc1)CN2 (stereo partly drawn) in this test.
Output: inactive

Task: Please share the test call associated with O=C1NC(c2c(F)cccc2Cl)Nc2ccccc21 (stereo not drawn) .
Output: inactive

Task: Test call for this compound, please: `N/C(=N\OC(=O)c1ccno1)c1ccc(C(F)(F)F)cc1`
Output: inactive

Task: Fill in: this test's call for `O=C(/C=C/c1ccc(O)c(O)c1)O[C@@H]1C[C@](O)(C(=O)O)C[C@@H](O)[C@H]1O` is ___
Output: inactive

Task: Give the logged outcome of this assay for the following compound: CC1=CC(=O)CC(C)(C)C1(O)/C=C/C(C)=C\C(=O)O (stereo not drawn)
Output: inactive

Task: Entry CCOC(=O)CCCCCCCCCCCCC1C=CCC1 (stereo not drawn) : call = ?
Output: active

###

experiment: chemical genetic growth profiling, strain panel (AID 1159580);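 note: tested at 20 µM; growth read once vehicle control cultures reached saturation at 30 °C; 1 = growth at the plate median or of vehicle wells; lower values mean less growth of the strain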; conditions: S. cerevisiae deletion strains, growth OD, locus YCL016C, strain dcc1, hits give low values
The campaign covered roughly 5,500 compounds. About 2,000 (36%) were called active. Another 18% or so got no clear call; they are omitted. This is one part of the list.
Listing of recorded normalized growth by entry.
# print the numeric value only

>>> value("CC(=O)OCC(=O)[C@@]12OC(C)(C)O[C@@H]1CC1C3C[C@H](F)C4=CC(=O)C=C[C@]4(C)[C@@]3(F)[C@@H](O)C[C@@]12C (stereo not given in full)")
1.03
>>> value("Oc1ccc(/C=C/c2cc(O)cc(O)c2)cc1")
0.99
>>> value("O=C(/C=C/c1ccc(O)c(O)c1)O[C@@H]1C[C@](O)(C(=O)O)C[C@@H](O)[C@H]1O")
1.02

Task: Read the entry `COc1ccc(-c2cc(C(F)F)nn2-c2ccc(S(N)(=O)=O)cc2)cc1F` and write its reported normalized growth.
Output: 0.992

Task: Report normalized growth, nothing else, for this compound: `O=C(O)CCC(=O)c1ccc(-c2ccccc2)cc1`
Output: 0.999

###

experiment: chemical genetic growth profiling, strain panel (AID 1159580);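 note: tested at 20 µM; growth read once vehicle control cultures reached saturation at 30 °C; 1 = growth at the plate median or of vehicle wells; lower values mean less growth of the strain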; settings: S. cerevisiae deletion strains, growth OD, locus YNL224C, strain SQS1, hits give low values
Out of some 5,500 compounds screened, about 2,000 (36%) were called active. Not shown: some 18% with an inconclusive outcome. The list shows a part of the results.
Observed Property: normalized growth
Please respond with just the number, no unit label.

>>> value("CCCn1c(=O)c2[nH]c(-c3ccc(S(=O)(=O)O)cc3)nc2n(CCC)c1=O")
1
>>> value("CC1Cc2cc3c(cc2C(c2ccc(N)cc2)=NN1)OCO3 (stereo not given)")
0.996
>>> value("COCCCCC(=NOCCN)c1ccc(C(F)(F)F)cc1")
1.02
>>> value("CCOC(=O)C1=CC2(CC)CCCN3CCc4c(n1c1ccccc41)C32 (stereo not given)")
1.01

Task: Entry `CC[C@H]1CN2CCc3cc(OC)c(OC)cc3[C@@H]2C[C@@H]1C[C@H]1NCCc2cc(OC)c(OC)cc21` needs its normalized growth filled in; supply it.
Output: 1.02
